Assignment: determine reported growth for the given molecules.
Test system: A498 renal
Assay: NCI-60 one-dose screen, 48 h (100 = growth as untreated, 0 = no growth, -100 = all killed)
Conditions: 10 µM unless noted
Description: Growth inhibition of the A498 human tumor cell line is measured as a screen for anti-cancer activity. Cells are grown in 96 well plates and exposed to the test compound for 48 hours. Compounds are tested at a single concentration, which is 10^-5 M for most compounds. The reported endpoint is percent growth (GI% or GIPRCNT), where numbers from 0 - 100% represent growth inhibition, and numbers from -100% - 0 represent cell death. For example, a value of 40 represents 60% growth inhibition. […]
The panel holds about 83,000 compounds, 20% with a hit somewhere; the sample as a whole holds those more often.
Numbers only, in %.

Example results:
[
  {
    "Molecule": "CC1=CCC2C1CC=C(C)C(CC[C@H]1[C@@](C)(O)CCC3OC(C)(C)[C@H](OC(=O)c4ccccc4)CC[C@@]31C)C2(C)C (some centres not stated)",
    "Assayed target": "A498 renal",
    "Unit symbol": "%",
    "growth": 110
  },
  {
    "Molecule": "Cc1ccc(C)c2c1SC1=NNC(Oc3ccc(Cl)cc3)=C(C#N)C(=N)N12",
    "Assayed target": "A498 renal",
    "Unit symbol": "%",
    "growth": 87.1
  },
  {
    "Molecule": "CCOC(=O)Cc1cc(Br)c(OCc2ccccc2)c(Br)c1",
    "Assayed target": "A498 renal",
    "Unit symbol": "%",
    "growth": 109
  }
]

Can you give me growth for all of these, one by one?
1. Cc1c(C(=O)Nc2ccccc2F)sc2c(=O)[nH]cnc12
2. CCN(CCC#N)c1ccccc1
3. O=C(Nc1ccc([N+](=O)[O-])cc1)c1cc2ccccc2cc1O
4. O=C(O)CSc1ccc(NCc2oc(CO)cc(=O)c2O)cc1

1: 99.6; 2: 130; 3: -42.5; 4: 106

====

system: OVCAR-5 ovarian; test: NCI-60 one-dose screen, 48 h (100 = growth as untreated, 0 = no growth, -100 = all killed); conditions: 10 µM unless noted
The panel holds about 83,000 compounds, 20% with a hit somewhere; the sample as a whole holds those more often. Calls of active or inactive are those of the source. Rule for the calls: active = growth percent below 10; inactive = the rest.
Assignment: determine reported growth for the given molecules.

[
  {
    "Molecule": "N/C(=N\\OC(=O)c1ccccc1)C(C(=O)NOC(=O)c1ccccc1)C1CCCCC1 (centres undefined)",
    "growth": "92.2% (inactive)"
  },
  {
    "Molecule": "CCCCCCCCCCCCCCCC1=NCCN1",
    "growth": "69% (inactive)"
  },
  {
    "Molecule": "Nc1ccc(C2=NNC(=O)Cc3cc4c(cc32)OCCO4)cc1Cl",
    "growth": "69.7% (inactive)"
  },
  {
    "Molecule": "COc1ccc(/C=C/C(=O)CCC(=O)O)cc1OC",
    "growth": "95.4% (inactive)"
  },
  {
    "Molecule": "c1csc(-c2cnc3nonc3n2)c1",
    "growth": "107% (inactive)"
  }
]

Can you give me growth for all of these, one by one?
1. CN1CCCN(CCNc2nccc(-c3c(-c4cccc(O)c4)nc4sccn34)n2)S1(=O)=O
2. Oc1ccc(-c2nnc3c4[nH]ccc4ncn23)cc1

1: 80.6% (inactive); 2: 113% (inactive)
